tested on: H3255; assay: relative viability (nuclei count vs DMSO), 5 days (fraction); higher = more cells survive; conditions: first compound 0.3162 µM
Attribute: relative viability
Just the number, please.

Recorded relative viability for CC(C)Oc1cc(Nc2nc(N[C@@H](C)c3ccc(F)cn3)ncc2Cl)n[nH]1 [AZ23] + CC(=O)c1c(C)c2cnc(Nc3ccc(N4CCNCC4)cn3)nc2n(C2CCCC2)c1=O [Palbociclib] (partner 0.5 µM) with H3255, please?
0.295

Continue with CC(C)Oc1cc(Nc2nc(N[C@@H](C)c3ccc(F)cn3)ncc2Cl)n[nH]1 [AZ23] + NC(=O)Nc1cc(-c2cccc(F)c2)sc1C(=O)N[C@H]1CCCNC1 [AZD7762] (partner 0.2 µM)
0.931

Proceed to CC(C)Oc1cc(Nc2nc(N[C@@H](C)c3ccc(F)cn3)ncc2Cl)n[nH]1 [AZ23] + COc1cccc2cc(-c3nc([C@H]4CC[C@H](C(=O)O)CC4)n4ncnc(N)c34)[nH]c12 [OSI-027] (partner 0.5 µM)
0.635

Again, but for CC(C)Oc1cc(Nc2nc(N[C@@H](C)c3ccc(F)cn3)ncc2Cl)n[nH]1 [AZ23] + CC(C)C[C@H](NC(=O)[C@H](Cc1ccccc1)NC(=O)c1cnccn1)B(O)O [Bortezomib] (partner 0.002 µM)
0.81

* * *

system: NCI-H1792; assay: relative viability (nuclei count vs DMSO), 5 days (fraction); higher = more cells survive; details: first compound 2.53 µM
Output 1.0 for records whose relative viability is lower than 0.7, 0.0 for records at or above 0.7.

Some solved entries appear below for comparison.
- molecule: "CCCCCCCCCCCC1=C(O)C(=O)C=C(O)C1=O [Embelin] + Nc1nc2[nH]cc(CCc3ccc(C(=O)N[C@@H](CCC(=O)O)C(=O)O)cc3)c2c(=O)[nH]1 [Pemetrexed] (partner 0.2 µM)"
  label: 0.0
- molecule: "CCCCCCCCCCCC1=C(O)C(=O)C=C(O)C1=O [Embelin] + CC(=O)c1c(C)c2cnc(Nc3ccc(N4CCNCC4)cn3)nc2n(C2CCCC2)c1=O [Palbociclib] (partner 0.5 µM)"
  label: 0.0
- molecule: "CCCCCCCCCCCC1=C(O)C(=O)C=C(O)C1=O [Embelin] + CS(=O)(=O)N1CCN(Cc2cc3nc(-c4cccc5[nH]ncc45)nc(N4CCOCC4)c3s2)CC1 [Pictilisib] (partner 1 µM)"
  label: 1.0
- molecule: "CCCCCCCCCCCC1=C(O)C(=O)C=C(O)C1=O [Embelin] + CS(=O)(=O)CCNCc1ccc(-c2ccc3ncnc(Nc4ccc(OCc5cccc(F)c5)c(Cl)c4)c3c2)o1 [Lapatinib] (partner 2 µM)"
  label: 0.0
- molecule: "CCCCCCCCCCCC1=C(O)C(=O)C=C(O)C1=O [Embelin] + Nc1ncn([C@H]2C[C@H](O)[C@@H](CO)O2)c(=O)n1 [Decitabine] (partner 2 µM)"
  label: 1.0

Find out if reported relative viability for CCCCCCCCCCCC1=C(O)C(=O)C=C(O)C1=O [Embelin] + Cc1nc(NC(=O)N2CCC[C@H]2C(N)=O)sc1-c1ccnc(C(C)(C)C(F)(F)F)c1 [Alpelisib] (partner 2 µM) is less than 0.7
0.0

And for CCCCCCCCCCCC1=C(O)C(=O)C=C(O)C1=O [Embelin] + CCNC(=O)c1noc(-c2cc(C(C)C)c(O)cc2O)c1-c1ccc(CN2CCOCC2)cc1 [Luminespib] (partner 0.01 µM) ?
1.0

* * *

system: NCI-H2126; assay: relative viability (nuclei count vs DMSO), 5 days (fraction); higher = more cells survive; details: first compound 4 µM
assayEndpoint: relative viability

- molecule: "COc1cc(N2CCC(C(N)=O)CC2)ccc1Nc1nc(N)c(Cl)c(Nc2ccccc2S(=O)(=O)C(C)C)n1 [HG-5-88-01] + CC(C)C[C@H](NC(=O)[C@H](Cc1ccccc1)NC(=O)c1cnccn1)B(O)O [Bortezomib] (partner 0.002 µM)"
  relative viability: 1.12
- molecule: "COc1cc(N2CCC(C(N)=O)CC2)ccc1Nc1nc(N)c(Cl)c(Nc2ccccc2S(=O)(=O)C(C)C)n1 [HG-5-88-01] + Cc1nc(NC(=O)N2CCC[C@H]2C(N)=O)sc1-c1ccnc(C(C)(C)C(F)(F)F)c1 [Alpelisib] (partner 2 µM)"
  relative viability: 0.716
- molecule: "C[C@@H]1CN(CC(=O)Nc2ccc3c(c2)Cc2cccc(-c4cc(=O)cc(N5CCOCC5)o4)c2S3)C[C@H](C)O1 + C[C@@H](Oc1cc(-c2cnn(C3CCNCC3)c2)cnc1N)c1c(Cl)ccc(F)c1Cl [Crizotinib] (partner 1 µM)"
  relative viability: 1.02

Continue with the molecule presented below.
Param item = COc1cc(N2CCC(C(N)=O)CC2)ccc1Nc1nc(N)c(Cl)c(Nc2ccccc2S(=O)(=O)C(C)C)n1 [HG-5-88-01] + Cc1cc(Nc2cc(N3CCN(C)CC3)nc(Sc3ccc(NC(=O)C4CC4)cc3)n2)n[nH]1 [Tozasertib] (partner 0.1 µM) ; retrieve measured relative viability.
0.487

* * *

tested on: NCI-H727; assay: relative viability (nuclei count vs DMSO), 5 days (fraction); higher = more cells survive; conditions: first compound 0.04 µM
assayEndpoint: relative viability

Examples from the recorded data:
- molecule: "C[C@@H]1CN(CC(=O)Nc2ccc3c(c2)Cc2cccc(-c4cc(=O)cc(N5CCOCC5)o4)c2S3)C[C@H](C)O1 + CC(=O)c1c(C)c2cnc(Nc3ccc(N4CCNCC4)cn3)nc2n(C2CCCC2)c1=O [Palbociclib] (partner 0.5 µM)"
  observedValue: 0.852
- molecule: "Clc1ccc(Nc2nnc(Cc3ccncc3)c3ccccc23)cc1 [Vatalanib] + Cc1nc(Nc2ncc(C(=O)Nc3c(C)cccc3Cl)s2)cc(N2CCN(CCO)CC2)n1 [Dasatinib] (partner 0.075 µM)"
  observedValue: 0.339
- molecule: "Clc1ccc(Nc2nnc(Cc3ccncc3)c3ccccc23)cc1 [Vatalanib] + CC(C)C[C@H](NC(=O)[C@H](Cc1ccccc1)NC(=O)c1cnccn1)B(O)O [Bortezomib] (partner 0.002 µM)"
  observedValue: 0.908

Give relative viability (NCI-H727) of the following molecule: COc1cc(N2CCC(C(N)=O)CC2)ccc1Nc1nc(N)c(Cl)c(Nc2ccccc2S(=O)(=O)C(C)C)n1 [HG-5-88-01] + Nc1ncn([C@H]2C[C@H](O)[C@@H](CO)O2)c(=O)n1 [Decitabine] (partner 2 µM)
0.913

Please answer likewise for C[C@@H]1CN(CC(=O)Nc2ccc3c(c2)Cc2cccc(-c4cc(=O)cc(N5CCOCC5)o4)c2S3)C[C@H](C)O1 + Nc1ncn([C@H]2C[C@H](O)[C@@H](CO)O2)c(=O)n1 [Decitabine] (partner 2 µM)
1.14

Also, C[C@@H]1CN(CC(=O)Nc2ccc3c(c2)Cc2cccc(-c4cc(=O)cc(N5CCOCC5)o4)c2S3)C[C@H](C)O1 + Cc1nc(Nc2ncc(C(=O)Nc3c(C)cccc3Cl)s2)cc(N2CCN(CCO)CC2)n1 [Dasatinib] (partner 0.075 µM) please.
0.361

One more molecule: C[C@@H]1CN(CC(=O)Nc2ccc3c(c2)Cc2cccc(-c4cc(=O)cc(N5CCOCC5)o4)c2S3)C[C@H](C)O1 + CC(C)C[C@H](NC(=O)[C@H](Cc1ccccc1)NC(=O)c1cnccn1)B(O)O [Bortezomib] (partner 0.002 µM)
0.892

Similarly, COc1cc(N2CCC(C(N)=O)CC2)ccc1Nc1nc(N)c(Cl)c(Nc2ccccc2S(=O)(=O)C(C)C)n1 [HG-5-88-01] + O=C(c1cc(Cc2n[nH]c(=O)c3ccccc23)ccc1F)N1CCN(C(=O)C2CC2)CC1 [Olaparib] (partner 8 µM) ?
0.715

Similarly, COc1cc(N2CCC(C(N)=O)CC2)ccc1Nc1nc(N)c(Cl)c(Nc2ccccc2S(=O)(=O)C(C)C)n1 [HG-5-88-01] + Cc1cc(Nc2cc(N3CCN(C)CC3)nc(Sc3ccc(NC(=O)C4CC4)cc3)n2)n[nH]1 [Tozasertib] (partner 0.1 µM) ?
0.594

Okay, and C[C@@H]1CN(CC(=O)Nc2ccc3c(c2)Cc2cccc(-c4cc(=O)cc(N5CCOCC5)o4)c2S3)C[C@H](C)O1 + Cc1cc(Nc2cc(N3CCN(C)CC3)nc(Sc3ccc(NC(=O)C4CC4)cc3)n2)n[nH]1 [Tozasertib] (partner 0.1 µM) ?
0.797

Param item: Clc1ccc(Nc2nnc(Cc3ccncc3)c3ccccc23)cc1 [Vatalanib] + C[C@]1(O)C[C@@H](c2nc(-c3ccc4ccc(-c5ccccc5)nc4c3)c3c(N)nccn32)C1 [Linsitinib] (partner 1 µM)
0.3

Same lookup for C[C@@H]1CN(CC(=O)Nc2ccc3c(c2)Cc2cccc(-c4cc(=O)cc(N5CCOCC5)o4)c2S3)C[C@H](C)O1 + CC1(C)CCC(c2ccc(Cl)cc2)=C(CN2CCN(c3ccc(C(=O)NS(=O)(=O)c4ccc(N[C@H](CCN5CCOCC5)CSc5ccccc5)c(S(=O)(=O)C(F)(F)F)c4)cc3)CC2)C1 [Navitoclax] (partner 0.5 µM) , please.
0.482
